assay: Acute toxicity (LD50, method of Lichtfield and Wilcoxon); settings: mouse, in vivo, iv, mice
MEASUREMENT_LABEL: LD50 (mg/kg)
Give bare numbers, in mg/kg.

Looking up CCN1CCc2c3n(c4ccccc24)C(C(=O)OC)=CCC31 (stereo not shown) [N-ethylchanodesethylapovincamine] , I found its LD50 recorded as 55

All values here come from patent US4200638A.
